Reference source for all entries: patent US20020137929A1

- System: IPOHE (Morningglory, Ivyleaf)
- test-method-notes: Preemergence herbicidal evaluation
- Assay type: in vivo, Ipomoea hederacea
- condition-set: 0.2500 kg/ha, rated 4-5 weeks after treatment
experimental-endpoint: Preemergence herbicidal rating IPOHE
Provide a numeric answer; units are not to be included.

Observe how each entry below is paired with its result.
molecule: CCOC(=O)CN1C(=O)C(C(=O)OC(C)(C)C)SC1=Nc1cc(-n2c(=O)cc(C(F)(F)F)n(C)c2=O)c(F)cc1Cl (stereo not shown)
Preemergence herbicidal rating IPOHE: 9.0
--
molecule: COCCCN1C(=O)CSC1=Nc1cc(-n2c(=O)cc(C(F)(F)F)n(C)c2=O)c(F)cc1Cl
Preemergence herbicidal rating IPOHE: 9.0
--
molecule: CCN1C(=O)CSC1=Nc1cc(-n2c(=O)cc(C(F)(F)F)n(C)c2=O)c(F)cc1Cl
Preemergence herbicidal rating IPOHE: 9.0

State Preemergence herbicidal rating IPOHE on IPOHE (Morningglory, Ivyleaf). Entry: CCOC(=O)CN1C(=O)C(CC(=O)O)SC1=Nc1cc(N2C(=O)CC(C(F)(F)F)CC2=O)c(F)cc1Cl (stereo not shown) 9.0

###

- System: CYPIR (Rice Flatsedge)
- test-method-notes: Postemergence weed control under flooded paddy conditions
- Assay type: in vivo, Cyperus iria
- condition-set: rate 0.1250 kg/ha, postemergence weeds, 3-4 weeks after treatment
# note: boundary value 3 maps to 0 (no); Herbicidal rating CYPIR below it maps to 1 (yes)

compound: CCOC(=O)CN1C(=O)C(CC(=O)O)S/C1=N/c1cc(-n2c(=O)cc(C(F)(F)F)n(C)c2=O)c(F)cc1Cl (stereo not shown) [Compound 16]
cat: 0 (no)
--
compound: CCOC(=O)CN1C(=O)CSC1=Nc1cc(-n2c(=O)cc(C(F)(F)F)n(C)c2=O)c(F)cc1Cl [Compound 8]
cat: 1 (yes)
--
compound: CN1C(=O)CS/C1=N/c1cc(-n2c(=O)cc(C(F)(F)F)n(C)c2=O)c(F)cc1Cl [Compound 7]
cat: 0 (no)
--
compound: CCOC(=O)CN1C(=O)C(CC(=O)OC)S/C1=N/c1cc(-n2c(=O)cc(C(F)(F)F)n(C)c2=O)c(F)cc1Cl (stereo not shown) [Compound 54]
cat: 0 (no)
--
compound: CCC1SC(=Nc2cc(N3C(=O)C4=C(CCCC4)C3=O)c(F)cc2Cl)N(C)C1=O (stereo not shown) [Compound 6]
cat: 1 (yes)

Alright, here's another compound for you.
Field: below-cutoff. Rule: recorded Herbicidal rating CYPIR strictly less than 3. Subject: CCOC(=O)/C=C1/S/C(=N/c2cc(-n3c(=O)cc(C(F)(F)F)n(C)c3=O)c(F)cc2Cl)N(CC(=O)OCC)C1=O [Compound 14] 0 (no)

###

- Test system: ECHCG (Barnyardgrass)
- test-method-notes: Preemergence herbicidal evaluation
- Format: in vivo, Echinochloa crus-galli
- condition-set: rate 0.2500 kg/ha; rated 4-5 weeks after treatment
experimental-endpoint: Preemergence herbicidal rating ECHCG

Please review the following examples before continuing.
compound: COC(=O)C(C)OC(=O)CN1C(=O)CSC1=Nc1cc(-n2c(=O)cc(C(F)(F)F)n(C)c2=O)c(F)cc1Cl (centres unmarked) [Compound 116]
Preemergence herbicidal rating ECHCG: 0.0

compound: CC(C)COC(=O)CN1C(=O)CSC1=Nc1cc(-n2c(=O)cc(C(F)(F)F)n(C)c2=O)c(F)cc1Cl [Compound 121]
Preemergence herbicidal rating ECHCG: 9.0

compound: CCOC(=O)CN1C(=O)C(CC(=O)Nc2ccccc2)SC1=Nc1cc(-n2c(=O)cc(C(F)(F)F)n(C)c2=O)c(F)cc1Cl (centres unmarked) [Compound 68]
Preemergence herbicidal rating ECHCG: 1.0

compound: C[C@@H](C(=O)O)N1C(=O)CS/C1=N/c1cc(-n2c(=O)cc(C(F)(F)F)n(C)c2=O)c(F)cc1Cl [Compound 51]
Preemergence herbicidal rating ECHCG: 1.0

Please find the next compound below.
Please respond with reported Preemergence herbicidal rating ECHCG (system ECHCG (Barnyardgrass)) for CCOC(=O)CN1C(=O)C(CC(=O)OC)S/C1=N/c1cc(-n2c(=O)cc(C(F)(F)F)n(C)c2=O)c(F)cc1Cl (centres unmarked) [Compound 54] . 5.0
